Origin of values: patent US20080038809A1

Biological target: secreted soluble GalNAc-T2 (Homo sapiens)
Construct: 6xHis (N); thrombin cleavage site (N); T7 antibody site (N); made in house; host or cells: baculovirus (pAcGP67A), High Five insect cells
Sequence (Q10471 52-571 limits assumed): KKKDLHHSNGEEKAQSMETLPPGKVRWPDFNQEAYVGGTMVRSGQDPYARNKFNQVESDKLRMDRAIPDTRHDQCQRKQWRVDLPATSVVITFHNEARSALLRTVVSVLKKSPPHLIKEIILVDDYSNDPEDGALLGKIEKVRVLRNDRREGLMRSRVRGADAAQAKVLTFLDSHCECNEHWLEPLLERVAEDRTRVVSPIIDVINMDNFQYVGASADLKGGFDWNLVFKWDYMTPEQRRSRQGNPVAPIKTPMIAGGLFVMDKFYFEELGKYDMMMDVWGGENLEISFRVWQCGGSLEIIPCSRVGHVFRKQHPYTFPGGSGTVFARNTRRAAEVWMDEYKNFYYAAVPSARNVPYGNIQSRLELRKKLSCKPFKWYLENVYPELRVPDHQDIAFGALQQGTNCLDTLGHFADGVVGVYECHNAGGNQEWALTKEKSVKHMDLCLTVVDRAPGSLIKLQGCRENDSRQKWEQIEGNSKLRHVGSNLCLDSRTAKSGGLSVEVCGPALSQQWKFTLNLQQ
Experiment: Inhibition of secreted soluble GalNAc-T2 (sT2) binding to GalNAc-MUC1 glycopeptide, ELISA
Settings: read-out: sT2: Concentration required for 50% inhibition (IC50)
pIC50: −log10 of the molar value.
RESULT_TYPE: pIC50

Entry under review: CC(=O)N[C@H]1[C@H](Oc2ccc([N+](=O)[O-])cc2)O[C@H](CO)[C@H](O)[C@@H]1O [pNPβGalNAc] . Reported pIC50?
< 2.00

###

Target: human GalNAc-T2 (UDP-GalNAc:polypeptide N-acetylgalactosaminyltransferase T2), secreted soluble enzyme (sT2), wild type (Homo sapiens, UniProt Q10471)
Sequence (Q10471 52-571 limits assumed): as the sequence (Q10471 52-571 limits assumed) above
Assay: biochemical
Details: binding to GalNAc-MUC1 glycopeptide
Description: The pH of 1 ml purified protein (0.3 mg/ml) in PBS was adjusted to pH 9 with 1 M NaOH and 40 μl N-hydroxy-succinimidobiotin (Sigma) dissolved in DMF (10 mg/ml) was added. The solution was mixed end-over-end for 2 hours at room temperature, and dialyzed three times against PBS and an equal volume of glycerol was added. The biotinylated proteins were stored at −20° C. in 50% glycerol until use. Glycopeptides were purified by C-18 reverse phase HPLC. […]
RESULT_TYPE: pIC50
Answers are plain numbers, as −log10 of the molar value.

What measured pIC50 goes with CC(=O)N[C@H]1[C@H](Oc2ccccc2[N+](=O)[O-])O[C@H](CO)[C@H](O)[C@@H]1O ?
2.00

###

System: GalNAc-T2 and -T4 secreted soluble enzymes as well as lectin domains
Assay: Inhibition of GalNAc-transferase lectin binding to GalNAc-glycopeptides, statements on GalNAc-T2 and -T4 together
Design: species or system human
Conditions: enzymes and isolated lectins
RESULT_TYPE: inhibition of GalNAc-T2 and -T4 lectin mediated binding, in words

COMPOUND: CC(=O)N[C@H]1[C@H](OCc2ccccc2)O[C@H](CO)[C@H](O)[C@@H]1O
RESULT_VALUE: equal inhibition
--
COMPOUND: CC(=O)N[C@H]1[C@@H](OCc2ccccc2)O[C@H](CO)[C@H](O)[C@@H]1O [BzlαGalNAc, benzyl-N-acetyl-alpha-D-galactosaminide]
RESULT_VALUE: equal inhibition

###

Biological target: human GalNAc-T4 (UDP-GalNAc:polypeptide N-acetylgalactosaminyltransferase T4) isolated truncated lectin domain (T4ld), HIS-tagged, amino acid residues 405-578 o (Homo sapiens)
Sequence (Q8N4A0 405-578): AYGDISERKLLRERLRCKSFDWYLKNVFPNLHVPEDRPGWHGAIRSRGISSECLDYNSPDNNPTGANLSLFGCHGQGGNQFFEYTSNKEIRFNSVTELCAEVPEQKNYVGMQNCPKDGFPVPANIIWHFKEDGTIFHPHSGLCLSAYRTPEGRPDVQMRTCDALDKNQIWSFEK
Assay: biochemical
Settings: read-out: Concentration required for 50% inhibition (IC50), binding to GalNAc-MUC1 glycopeptide
Excerpt: In order to minimize the size and functional complexity of GalNAc-transferase lectins to be used as probes for binding studies, we used multiple sequence alignment analysis to predict and design suitable expression constructs for isolated lectin domains (FIG. 2). In the present invention a direct binding assay was developed using isolated lectin domains of GalNAc-T4 and -T2 with minimal size (FIG. 5). […]
RESULT_TYPE: IC50 (mM)
One number for each entry, in mM.

# input compound: CC(=O)N[C@H]1[C@@H](Oc2ccccc2)O[C@H](CO)[C@H](O)[C@@H]1O ; wanted: its IC50
5

###

Target: secreted soluble GalNAc-T4 (Homo sapiens, UniProt Q8N4A0)
Construct: 6xHis (N); thrombin cleavage site (N); T7 antibody site (N)
Sequence (Q8N4A0 36-578 limits assumed): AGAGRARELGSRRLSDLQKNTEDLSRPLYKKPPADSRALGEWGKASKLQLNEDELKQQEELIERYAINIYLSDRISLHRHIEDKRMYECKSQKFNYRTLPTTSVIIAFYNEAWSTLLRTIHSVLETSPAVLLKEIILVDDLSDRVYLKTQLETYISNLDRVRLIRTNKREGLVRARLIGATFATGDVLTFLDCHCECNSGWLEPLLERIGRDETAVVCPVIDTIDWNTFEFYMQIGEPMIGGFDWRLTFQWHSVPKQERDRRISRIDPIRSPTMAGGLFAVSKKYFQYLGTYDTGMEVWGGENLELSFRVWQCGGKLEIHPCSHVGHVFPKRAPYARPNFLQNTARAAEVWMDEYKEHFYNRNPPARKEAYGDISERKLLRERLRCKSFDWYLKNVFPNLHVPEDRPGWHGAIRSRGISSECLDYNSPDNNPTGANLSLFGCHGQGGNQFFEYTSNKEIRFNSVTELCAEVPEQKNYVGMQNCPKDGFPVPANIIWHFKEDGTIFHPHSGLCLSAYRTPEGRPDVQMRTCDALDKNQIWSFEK
Experiment: Inhibition of secreted soluble GalNAc-T4 (sT4) binding to GalNAc-MUC1 glycopeptide, ELISA
Protocol: Direct binding ELISA assay was developed as follows: Polystyrene microtiter plates (Maxisorb, Nunc, Denmark) were coated with peptides or enzymatically glycosylated glycopeptides in PBS overnight at 4° C. Plates were washed and blocked with 0.1% Tween20 and 0.2% BSA in PBS for 1 h at room temperature, followed by incubation with biotinylated proteins in PBS with 0.05% Tween20 for 2 h at room temperature. […]
RESULT_TYPE: IC50

Dear colleague, could you please provide IC50 for the compounds listed below?
1. CC(=O)N[C@H]1[C@@H](Oc2ccccc2[N+](=O)[O-])O[C@H](CO)[C@H](O)[C@@H]1O
2. CC(=O)N[C@H]1C(O)O[C@H](CO)[C@H](O)[C@@H]1O (stereo partly drawn)
3. CC(=O)N[C@H]1[C@@H](Oc2ccc([N+](=O)[O-])cc2)O[C@H](CO)[C@H](O)[C@@H]1O
4. CC(=O)N[C@H]1[C@@H](OCc2ccccc2)O[C@H](CO)[C@H](O)[C@@H]1O [BzlαGalNAc, benzyl-N-acetyl-alpha-D-galactosaminide]
5. OC[C@H]1O[C@@H](O[C@H]2[C@H](O)[C@@H](O)C(O)O[C@@H]2CO)[C@H](O)[C@@H](O)[C@H]1O (stereo partly drawn)

0.5 mM
1 mM
1 mM
1 mM
> 100 mM

I'd like to know its IC50. The compound in question is CC(=O)N[C@H]1[C@@H](OP(=O)(O)OP(=O)(O)OC[C@H]2O[C@@H](n3ccc(=O)[nH]c3=O)[C@H](O)[C@@H]2O)O[C@H](CO)[C@H](O)[C@@H]1O
30 mM
